Target sequence: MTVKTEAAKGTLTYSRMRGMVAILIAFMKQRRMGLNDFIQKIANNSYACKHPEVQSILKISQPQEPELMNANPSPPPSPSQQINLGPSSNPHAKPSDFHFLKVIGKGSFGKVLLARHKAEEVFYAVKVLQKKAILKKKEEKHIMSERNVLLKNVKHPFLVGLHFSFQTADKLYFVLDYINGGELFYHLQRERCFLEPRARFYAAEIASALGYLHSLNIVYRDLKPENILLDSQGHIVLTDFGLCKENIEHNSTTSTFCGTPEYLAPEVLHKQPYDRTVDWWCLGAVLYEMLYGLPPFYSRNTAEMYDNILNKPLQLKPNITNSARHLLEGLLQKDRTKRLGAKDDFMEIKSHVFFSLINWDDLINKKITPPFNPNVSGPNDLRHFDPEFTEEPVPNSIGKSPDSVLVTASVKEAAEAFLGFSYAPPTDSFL
Where a name gives a salt, the structure may show the parent alone.
In this section we review reported IC50 values for a set of compounds.
EXPERIMENTAL READOUT: IC50

compound="COC(=O)N1CC=C(c2cc(N3CCC[C@@H](NC(=O)c4sc(C)nc4OC4CC5CC(C4)N(C(C)C)C5)C3)c3c(N)ncnn23)C1 (single isomer, unassigned)" experimental_result="7 nM"
compound=[2H]C([2H])([2H])c1nc(O[C@H]2CC[C@@H](N(C)C)CC2)c(C(=O)N[C@@H]2CCCN(c3cc(C4=C(C)C(=O)OC4)n4ncnc(N)c34)C2)s1 experimental_result="1 nM"
compound="CCOC1=C(C(=O)N[C@@H]2CCCN(c3cc(C4=CCN(C(C)=O)C4)n4ncnc(N)c34)C2)CN(c2ccccc2)C1=O [Example 758, TFA salt]" experimental_result="143 nM"
compound="CN1[C@@H]2CC[C@H]1C[C@H](Oc1cc(Cl)sc1C(=O)N[C@@H]1CCCN(c3cc(C4=CCOC4)n4ncnc(N)c34)C1)C2 [Example 926, TFA salt]" experimental_result="0.8 nM"
compound="Cc1nc(O[C@@H]2C[C@H]3CC[C@@H](C2)N3C2CC(O)C2)c(C(=O)N[C@@H]2CCCN(c3cc(-c4ccc(-n5cnnn5)c(F)c4)n4ncnc(N)c34)C2)s1 (stereo partly shown) [Example 929, TFA salt]" experimental_result="1 nM"
compound="COC[C@@H](C)NC1CCC(Oc2nc(C)sc2C(=O)N[C@@H]2CCCN(c3cc(-c4ccc(C(N)=O)c(F)n4)n4ncnc(N)c34)C2)CC1 (stereo partly shown)" experimental_result="1.7 nM"
compound="CCC(C)(C)NC1CCC(Oc2nc(C)sc2C(=O)N[C@@H]2CCCN(c3cc(C4=CC(=O)OC4)n4ncnc(N)c34)C2)CC1 (stereo partly shown)" experimental_result="0.6 nM"

====

Molecular target: full length SGK1 (Homo sapiens, UniProt O00141)
Construct: 125 μM full length SGK1 (Life Technologies Part #PR7358A); purchased Life Technologies PR7358A
Test: SGK1 inhibition Assay A (Caliper LabChip electrophoretic separation of fluorescent peptide substrate and phosphorylated product)
Type: biochemical
Settings: Assay A; 20 μM ATP, 40 min incubation; read-out: SGK1 IC50
pIC50: −log10 of the molar value.
Outcome label depends on pIC50 relative to 8: at/above gives condition met, below gives condition not met.

molecule="COC(=O)N1CC=C(c2cc(N3CCC[C@@H](NC(=O)c4sc(C5CC5)cc4OC4CNC4)C3)c3c(N)ncnn23)C1 [Example 388]" class_assignment="condition met"
molecule="COc1cscc1C(=O)N[C@@H]1CCCN(c2cc(-c3ccnc(F)c3)n3ncnc(N)c23)C1 [Example 156]" class_assignment="condition met"
molecule="CC(=O)N1CC=C(c2cc(N3CCC[C@@H](NC(=O)c4cccc(N5CC6(C5)CN(C(C)C)C6)n4)C3)c3c(N)ncnn23)C1 [Example 781]" class_assignment="condition met"
molecule="Nc1ncnn2c(-c3ccnc(C(F)F)c3)cc(N3CCC[C@@H](NC(=O)c4nc5ccccc5[nH]4)C3)c12 [Example 489]" class_assignment="condition not met"

====

Biological target: full length SGK1 (Homo sapiens, UniProt O00141)
Construct: 125 μM full length SGK1 (Life Technologies Part #PR7358A); purchased Life Technologies PR7358A
Assay: SGK1 inhibition Assay A (Caliper LabChip electrophoretic separation of fluorescent peptide substrate and phosphorylated product)
Assay type: biochemical
Conditions: Assay A; 20 μM ATP, 40 min incubation; read-out: SGK1 IC50
pIC50: −log10 of the molar value. Structures can show the parent of a compound that is named as a salt.
Binary classification by pIC50, with 8 as an inclusive lower bound for class 1; all other cases are class 0.

compound="CC(=O)N1CC=C(c2cc(N3CCC[C@@H](NC(=O)c4cccc(-n5cnnc5)c4)C3)c3c(N)ncnn23)C1 [Example 257, TFA]" class_assignment="class 0"
compound=CC(=O)N1CC=C(c2cc(N3CCC[C@@H](NC(=O)c4cccc(N(C)C)n4)C3)c3c(N)ncnn23)C1 class_assignment="class 0"
compound=Cc1cc(-c2cc(N3CCC[C@@H](NC(=O)c4sc(C(F)F)cc4OCCN(C)C)C3)c3c(N)ncnn23)cc(C(F)F)n1 class_assignment="class 0"
compound=Cc1ccc(C(=O)N[C@@H]2CCCN(c3cc(-c4ccnc(F)c4)n4ncnc(N)c34)C2)s1 class_assignment="class 1"

====

Target: full length SGK1 (Homo sapiens, UniProt O00141)
Construct: 125 μM full length SGK1 (Life Technologies Part #PR7358A); purchased Life Technologies PR7358A
Sequence (O00141 1-431): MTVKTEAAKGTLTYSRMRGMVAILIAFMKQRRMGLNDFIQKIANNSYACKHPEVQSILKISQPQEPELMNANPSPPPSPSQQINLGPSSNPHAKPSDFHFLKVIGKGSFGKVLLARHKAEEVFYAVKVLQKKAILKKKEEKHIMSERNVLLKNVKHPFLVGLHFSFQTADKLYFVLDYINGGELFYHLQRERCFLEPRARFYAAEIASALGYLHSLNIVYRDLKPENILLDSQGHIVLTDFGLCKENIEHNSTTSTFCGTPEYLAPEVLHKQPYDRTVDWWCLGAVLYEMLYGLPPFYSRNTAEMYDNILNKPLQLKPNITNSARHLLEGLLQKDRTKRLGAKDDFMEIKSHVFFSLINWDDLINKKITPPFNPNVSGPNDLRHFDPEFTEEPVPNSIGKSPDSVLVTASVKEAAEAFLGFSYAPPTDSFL
Assay: SGK1 inhibition Assay A (Caliper LabChip electrophoretic separation of fluorescent peptide substrate and phosphorylated product)
Type: biochemical
Settings: Assay A; 20 μM ATP, 40 min incubation; read-out: SGK1 IC50
# Lookup of reported IC50 keyed by entry
EXPERIMENTAL READOUT: IC50 (nM)

compound=CN(C)CCOc1cc(Cl)sc1C(=O)N[C@@H]1CCCN(c2cc(-c3ccc(C#N)nc3)n3ncnc(N)c23)C1 unit_annotation=nM experimental_result=1
compound="CC1CC(Oc2cc(Cl)sc2C(=O)NC2CCCN(c3cc(-c4cncnc4)n4ncnc(N)c34)C2)CCN1 (single isomer, unassigned) [Example 625]" unit_annotation=nM experimental_result=6
compound="CC(=O)N1CC=C(c2cc(N3CCCC(NC(=O)c4sc(Cl)cc4OC4CC5CC4CN5C)C3)c3c(N)ncnn23)C1 (single isomer, unassigned) [Example 609]" unit_annotation=nM experimental_result=7
compound=N#Cc1ccc(-c2cc(N3CCC[C@@H](NC(=O)c4sc(Cl)cc4OCC4CNC4)C3)c3c(N)ncnn23)cn1 unit_annotation=nM experimental_result=7
compound=CC(=O)N1CC=C(c2cc(N3CCC[C@@H](NC(=O)c4ccc(-c5cn[nH]c5)s4)C3)c3c(N)ncnn23)C1 unit_annotation=nM experimental_result=8
compound=CN(C(=O)c1ccccc1)[C@@H]1CCCN(c2cc(-c3ccc(S(C)(=O)=O)cc3)n3ncnc(N)c23)C1 unit_annotation=nM experimental_result=606

====

Recorded pIC50 for the following molecules
Molecular target: full length SGK1 (Homo sapiens)
Construct: 125 μM full length SGK1 (Life Technologies Part #PR7358A); purchased Life Technologies PR7358A
Sequence (O00141 1-431): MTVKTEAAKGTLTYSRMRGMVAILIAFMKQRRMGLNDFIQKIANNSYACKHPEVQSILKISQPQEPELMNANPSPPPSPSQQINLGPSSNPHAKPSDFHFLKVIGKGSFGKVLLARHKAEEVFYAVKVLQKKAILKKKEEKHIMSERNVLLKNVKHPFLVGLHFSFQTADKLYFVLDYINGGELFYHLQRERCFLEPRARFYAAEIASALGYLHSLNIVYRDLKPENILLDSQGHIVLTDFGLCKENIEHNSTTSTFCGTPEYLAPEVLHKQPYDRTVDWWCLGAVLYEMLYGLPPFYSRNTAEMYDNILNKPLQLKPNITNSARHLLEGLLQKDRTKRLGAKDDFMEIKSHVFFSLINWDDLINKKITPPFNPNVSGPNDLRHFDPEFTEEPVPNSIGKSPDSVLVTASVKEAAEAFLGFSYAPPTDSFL
Test: SGK1 inhibition Assay A (Caliper LabChip electrophoretic separation of fluorescent peptide substrate and phosphorylated product)
Type: biochemical
Settings: Assay A; 20 μM ATP, 40 min incubation; read-out: SGK1 IC50
pIC50: −log10 of the molar value. Counter-ions that a name gives are not always drawn.
EXPERIMENTAL READOUT: pIC50

molecule=CN1[C@@H]2CC[C@H]1C[C@H](Oc1cc(Cl)sc1C(=O)N[C@@H]1CCCN(c3cc(-c4cncnc4)n4ncnc(N)c34)C1)C2 experimental_result=8.52
molecule=COC(=O)N1CC=C(c2cc(N3CCC[C@@H](NC(=O)c4n[nH]c5ccc(C#N)cc45)C3)c3c(N)ncnn23)C1 experimental_result=6.58
molecule=Cc1cc(Br)c(C(=O)N[C@@H]2CCCN(c3cc(-c4ccnc(F)c4)n4ncnc(N)c34)C2)s1 experimental_result=8.22
molecule="NC(=O)c1ccc(-c2cc(N3CCC[C@@H](NC(=O)c4sc(Cl)cc4OCCN4CCOCC4)C3)c3c(N)ncnn23)cc1F [Example 163, TFA]" experimental_result=8.22
molecule=COC(=O)N1CC=C(c2cc(N3CCC[C@@H](NC(=O)c4sc(Cl)cc4OCCN4CCS(=O)(=O)CC4)C3)c3c(N)ncnn23)C1 experimental_result=8.10
molecule=CC(=O)N1CC=C(c2cc(N3CCC[C@@H](NC(=O)c4cccc(F)n4)C3)c3c(N)ncnn23)C1 experimental_result=7.21
molecule="CS(=O)(=O)c1ccc(-c2cc(N3CC[C@@H]4C[C@]4(NC(=O)c4ccc(Cl)s4)C3)c3c(N)ncnn23)cc1 (relative stereo) [Example 165, TFA]" experimental_result=6.55
molecule=Nc1ncnn2c(-c3ccc(=O)[nH]c3)cc(N3CCC[C@@H](NC(=O)c4ccc(C(F)F)s4)C3)c12 experimental_result=6.72
molecule=COC(=O)N1CC=C(c2cc(N3CCC[C@@H](NC(=O)c4sc5ccc(C#N)cc5c4OC4CCN(C(=O)OC(C)(C)C)CC4)C3)c3c(N)ncnn23)C1 experimental_result=6.32
molecule=CS(=O)(=O)c1ccc(-c2cc(N3CCC[C@@H](NC(=O)c4ccccc4)C3)c3c(N)ncnn23)cc1 experimental_result=7.55
molecule=Nc1ncnn2c(C3=CCN(C(=O)c4nccs4)C3)cc(N3CCC[C@@H](NC(=O)c4ccc(Cl)s4)C3)c12 experimental_result=7.82
molecule=Nc1ncnn2c(-c3ccnc(F)c3)cc(N3CCC[C@@H](NC(=O)c4cc(Cl)c(Cl)s4)C3)c12 experimental_result=8.30
molecule=N#Cc1ccc(-c2cc(N3CCC[C@@H](NC(=O)c4ccc(Cl)s4)C3)c3c(N)ncnn23)cn1 experimental_result=9.52
molecule=CC(=O)N1CC=C(c2cc(N3CCC[C@@H](NC(=O)N4CCCC4)C3)c3c(N)ncnn23)C1 experimental_result=6.58
molecule=CC(=O)N1CCC(Oc2cc(C(F)F)sc2C(=O)N[C@@H]2CCCN(c3cc(C4=CCN(C(C)=O)C4)n4ncnc(N)c34)C2)CC1 experimental_result=7.30
molecule="CS(=O)(=O)c1ccc(-c2cc(N3CCC[C@@H](NC(=O)c4cnn(C(F)F)c4)C3)c3c(N)ncnn23)cc1 [Example 75, TFA]" experimental_result=7.36
molecule=Nc1ncnn2c(C3=CCN(C(=O)c4cncs4)C3)cc(N3CCC[C@@H](NC(=O)c4ccc(Cl)s4)C3)c12 experimental_result=8.40
molecule="Nc1ncnn2c(C3=CCN(C(=O)C4CC45CC5)C3)cc(N3CCC[C@@H](NC(=O)c4sc(Cl)cc4OCCN4CCOCC4)C3)c12 (some centres unmarked)" experimental_result=7.74
molecule=CS(=O)(=O)c1ccc(-c2cc(N3CCC[C@@H](NC(=O)c4cccc(Cl)c4)C3)c3c(N)ncnn23)cc1 experimental_result=7.89
molecule=COC(=O)N1CC=C(c2cc(N3CCC[C@@H](NC(=O)c4sc5ccncc5c4OCCN(C)C)C3)c3c(N)ncnn23)C1 experimental_result=7.68
molecule="CN(C)CCOc1cc(Cl)sc1C(=O)N[C@@H]1CCCN(c2cc(-c3ccc(C(N)=O)c(F)c3)n3ncnc(N)c23)C1 [Example 164, TFA]" experimental_result=8.70
molecule=CC(=O)N1CC=C(c2cc(N3CCC[C@@H](NC(=O)c4sc(Cl)cc4OCCN4CCNCC4)C3)c3c(N)ncnn23)C1 experimental_result=7.85
molecule=Nc1ncnn2c(C3=CCN(C(=O)c4ccon4)C3)cc(N3CCC[C@@H](NC(=O)c4ccc(Cl)s4)C3)c12 experimental_result=9.00
molecule=NC(=O)c1ccc(-c2cc(N3CCC[C@@H](NC(=O)c4sc(C5CC5)cc4OC4CCNCC4)C3)c3c(N)ncnn23)cc1F experimental_result=9.00
molecule="CCc1cccc(C(=O)N[C@@H]2CCCN(c3cc(-c4ccc(S(C)(=O)=O)cc4)n4ncnc(N)c34)C2)c1 [Example 79, TFA]" experimental_result=7.59
molecule=CCOc1ccsc1C(=O)N[C@@H]1CCCN(c2cc(-c3ccc(S(C)(=O)=O)cc3)n3ncnc(N)c23)C1 experimental_result=8.15
